Test system: HepG2 cells
Test: Cytotoxicity against HepG2 cells
Format: cell-based
Binary label based on EC50 with cut-off 300 µM: below gives yes (1), not below gives no (0).

Consider the worked cases shown below.
>  <chemicalString>
CN(C)C1CCN(c2ccc3sc4ccc(N5CCC(N(C)C)CC5)cc4c3c2)CC1

>  <assignedCategory>
no (0)

$$$$
>  <chemicalString>
N=C(N)NCCCOc1cccc(-c2cncc(-c3ccc(-c4cncc(-c5cccc(OCCCNC(=N)N)c5)c4)s3)c2)c1

>  <assignedCategory>
yes (1)

$$$$
>  <chemicalString>
O=C(Nc1ccc(SCCNC2=NCCN2)c(C(F)(F)F)c1)Nc1ccc(SCCNC2=NCCN2)c(C(F)(F)F)c1

>  <assignedCategory>
no (0)

$$$$
>  <chemicalString>
CN(C)CCSc1cc(SCCN(C)C)c(C(F)(F)F)cc1NC(=O)c1cc(C(=O)Nc2cc(C(F)(F)F)c(SCCN(C)C)cc2SCCN(C)C)ncn1

>  <assignedCategory>
yes (1)

$$$$
>  <chemicalString>
c1cc2sc3ccc(NC4CCNCC4)cc3c2cc1NC1CCNCC1

>  <assignedCategory>
no (0)

$$$$
>  <chemicalString>
NCCc1cccc(-c2ccc(-c3cccc(CCN)c3)cc2)c1

>  <assignedCategory>
yes (1)

$$$$

Inquiry: API: query returns whether the molecule falls strictly under 300 µM in EC50. Query: "CCn1c2ccc(C3CCNCC3)cc2c2cc(C3CCNCC3)ccc21"
Reply text: yes (1)

Inquiry: Identify whether the molecule "NCCc1ccc(-c2ccc(-c3ccc(CCN)cc3)s2)cc1" records EC50 below 300 µM.
Reply text: yes (1)

FYI, the data here is from patent US20150094294A1.
